Kindly state dTm for each of the entries shown.
Target Under Test: ~100 representative kinases (Homo sapiens)
Construct: Recombinant protein kinase domains with a concentration of 2 μM
Sequence (Q9NSY1 whole entry, the tested form may be a part): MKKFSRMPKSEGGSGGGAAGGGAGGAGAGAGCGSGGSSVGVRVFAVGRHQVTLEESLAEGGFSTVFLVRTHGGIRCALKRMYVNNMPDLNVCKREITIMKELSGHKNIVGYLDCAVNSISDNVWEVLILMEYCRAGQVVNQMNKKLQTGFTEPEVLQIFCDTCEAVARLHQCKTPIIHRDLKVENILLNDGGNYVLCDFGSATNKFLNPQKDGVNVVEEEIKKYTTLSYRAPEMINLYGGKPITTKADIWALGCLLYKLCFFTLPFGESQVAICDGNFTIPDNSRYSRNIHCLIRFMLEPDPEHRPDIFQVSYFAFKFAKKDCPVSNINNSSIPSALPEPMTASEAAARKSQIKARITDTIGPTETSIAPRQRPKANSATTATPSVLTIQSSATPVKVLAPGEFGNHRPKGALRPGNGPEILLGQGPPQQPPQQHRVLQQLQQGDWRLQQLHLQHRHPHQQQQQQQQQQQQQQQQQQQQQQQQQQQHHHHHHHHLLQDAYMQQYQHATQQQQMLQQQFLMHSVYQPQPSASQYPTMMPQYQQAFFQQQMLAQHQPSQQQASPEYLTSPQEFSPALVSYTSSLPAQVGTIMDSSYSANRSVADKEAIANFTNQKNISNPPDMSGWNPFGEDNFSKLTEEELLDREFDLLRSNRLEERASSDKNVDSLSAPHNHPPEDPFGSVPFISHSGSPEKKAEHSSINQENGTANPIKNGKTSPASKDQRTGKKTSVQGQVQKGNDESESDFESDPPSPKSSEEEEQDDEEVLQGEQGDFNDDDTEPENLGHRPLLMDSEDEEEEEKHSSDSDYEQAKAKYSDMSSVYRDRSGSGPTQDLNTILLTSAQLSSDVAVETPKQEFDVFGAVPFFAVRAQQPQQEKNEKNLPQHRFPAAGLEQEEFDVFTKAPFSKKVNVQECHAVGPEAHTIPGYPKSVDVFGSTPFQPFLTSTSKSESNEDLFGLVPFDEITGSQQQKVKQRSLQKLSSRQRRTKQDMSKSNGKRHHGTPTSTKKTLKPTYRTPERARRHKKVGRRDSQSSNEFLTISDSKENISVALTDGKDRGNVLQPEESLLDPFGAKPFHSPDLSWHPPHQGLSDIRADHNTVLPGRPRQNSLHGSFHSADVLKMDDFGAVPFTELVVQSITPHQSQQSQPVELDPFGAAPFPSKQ
Protocol Description: DSF 100 kinase selectivity screen;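 further: compound tested at 20 µM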
Assay type: binding
Condition Notes: Protein BMP2K; average of three replicates
Answer with the figure and its unit, nothing else.

Worked cases, answers included:
| Compound | dTm |
| --- | --- |
| O=C(Nc1cccc(-c2c[nH]c3ncnc(N4CCOCC4)c23)c1)C1(C(=O)Nc2ccc(F)cc2F)CC1 [Compound 23] | 7.18 K |
| CCc1ccc(NC(=O)C2(C(=O)Nc3cccc(-c4c[nH]c5ncnc(N6CCOCC6)c45)c3)CC2)cc1 [Compound 15] | 4.66 K |

Parameter requested: dTm. Apply to each item below.
1. O=C(Nc1cccc(-c2c[nH]c3ncnc(N4CCOCC4)c23)c1)C1(C(=O)Nc2ccc(F)c(Cl)c2)CC1 [Compound 18]
2. O=C(Nc1cccc(-c2c[nH]c3ncnc(N4CCOCC4)c23)c1)c1cccn(-c2ccc(F)cc2)c1=O [Compound 4]
3. O=C(Nc1cccc(-c2c[nH]c3ncnc(N4CCOCC4)c23)c1)C1(C(=O)Nc2cc(Br)c(F)cc2F)CC1 [Compound 25]
4. C[C@@H]1CN(c2cc(-c3n[nH]c4ccc(OC5(C)CC5)cc34)ncn2)C[C@H](C)O1 [MLi2]
5. COc1cc(C(=O)N2CCOCC2)c(F)cc1Nc1nc(N(C)C)c2c(Cl)c[nH]c2n1 [Compound 36]
6. CC(=O)N1CCN(c2nc(Cl)nc3[nH]cc(-c4cccc(NC(=O)Nc5cc(C(C)(C)C)nn5-c5ccc(C)cc5)c4)c23)CC1 [Compound 31]
7. CNC(=O)c1cc(Oc2ccc(NC(=O)Nc3cc(C(C)(C)C)nn3-c3ccc4ncccc4c3)c(F)c2)ccn1 [Rebastinib, reference compound]
8. Cc1ccc(C(=O)Nc2ccc(CN3CCN(C)CC3)c(C(F)(F)F)c2)cc1C#Cc1cnc2[nH]ncc2c1 [GZD-824, reference compound]

Data returned:
["8.58 K", "3.26 K", "6.63 K", "2.01 K", "1.71 K", "1.28 K", "0.72 K", "4.51 K"]

Give one value of dTm per listed compound.
1. CN[C@@H]1C[C@H]2O[C@@](C)([C@@H]1OC)n1c3ccccc3c3c4c(c5c6ccccc6n2c5c31)C(=O)NC4 [Staurosporine]
2. Cn1cc(-c2c[nH]c3ncnc(N4CCOCC4)c23)cc1C#N [PFE-360]

Data returned:
1: 18.68 K; 2: 14.15 K

Quick batch: dTm for everything below.
1. Cc1cc(NC(=O)C2(C(=O)Nc3cccc(-c4c[nH]c5ncnc(N6CCOCC6)c45)c3)CC2)ccc1F [Compound 20]
2. CC(C)(C)c1cccc(NC(=O)C2(C(=O)Nc3cccc(-c4c[nH]c5ncnc(N6CCOCC6)c45)c3)CC2)c1 [Compound 22]
3. Cc1cc(F)ccc1NC(=O)C1(C(=O)Nc2cccc(-c3c[nH]c4ncnc(N5CCOCC5)c34)c2)CC1 [Compound 24]
4. COc1cc(S(C)(=O)=O)ccc1Nc1nc(N(C)C)c2c(Cl)c[nH]c2n1 [Compound 37]

Data returned:
8.74 K
4.67 K
6.47 K
0.08 K

Dear colleague, could you please provide dTm for the compounds listed below?
1. CCNc1nc(Nc2cc(F)c(C(=O)N3CCOCC3)cc2OC)ncc1C(F)(F)F [GNE-7915]
2. O=C(Nc1cccc(-c2c[nH]c3ncnc(N4CCOCC4)c23)c1)C1(C(=O)Nc2ccc(F)c(F)c2)CC1 [Compound 17]
3. CCSc1nc(NC)c2c(-c3cccc(NC(=O)Nc4cc(C(C)(C)C)nn4-c4ccc(C)cc4)c3)c[nH]c2n1 [Compound 32]

Data returned:
["8.11 K", "7.72 K", "0.75 K"]

Provide dTm for all items below, preserving their order.
1. COc1cc2c(Oc3ccc(NC(=O)C4(C(=O)Nc5ccc(F)cc5)CC4)cc3F)ccnc2cc1OCCCN1CCOCC1 [Foretinib, reference compound]
2. Cc1ccc(C(=O)Nc2ccc(CN3CCN(C)CC3)c(C(F)(F)F)c2)cc1C#Cc1c[nH]c2ncnc(N3CCOCC3)c12 [Compound 1]

Data returned:
1. 1.65 K
2. 7.81 K
